biological target: Aromatase (Homo sapiens); experiment: qHTS assay to identify aromatase inhibitors (AID 743083); conditions: MCF-7 aro ERE, testosterone-driven ERE luciferase, 24 h; series mostly up to 70.3 µM; note: nearly all actives have a fitted effect of over 55% in size
Results filed as inconclusive are left out. Active and inactive are the calls of the source. Calls come from the whole dose curve; as a rule, active = well fitted inhibition curve with a large enough effect in the repeat runs; inconclusive = weak or mixed curves; inactive = no such curve, though single readings can be large or run the other way.
Outcomes: active, inactive

compound | system_tested | assigned_label
CCCC(=O)O[C@]1(C(=O)COC(C)=O)CC[C@H]2[C@@H]3C[C@H](F)C4=CC(=O)C=C[C@]4(C)[C@@]3(F)[C@@H](O)C[C@@]21C | Aromatase (Homo sapiens) | inactive
O=C(OCc1ccccc1)c1cccnc1 | Aromatase (Homo sapiens) | inactive
O=S(=O)(O)Oc1ccc(C(c2ccc(OS(=O)(=O)O)cc2)c2ccccn2)cc1 | Aromatase (Homo sapiens) | inactive
[O]=[Bi][O][Bi]=[O] | Aromatase (Homo sapiens) | inactive
CCCCC[C@H](O)/C=C/[C@H]1[C@H](O)CC(=O)[C@@H]1CCCCCCC(=O)O | Aromatase (Homo sapiens) | inactive
C/C1=C2N=C(/C=C3N=C(/C(C)=C4\[N-]C(C(CC(N)=O)C4(C)CCC(=O)NCC(C)OP(=O)([O-])OC4C(CO)OC(n5cnc6cc(C)c(C)cc65)C4O)C4(C)N=C1C(CCC(N)=O)C4(C)CC(N)=O)C(CCC(N)=O)C\3(C)C)C(CCC(N)=O)C/2(C)CC(N)=O.[CH3-].[Co+3] (configuration not stated) | Aromatase (Homo sapiens) | active
c1ccc2c(c1)Sc1ccccc1N2CCN1CCCC1 | Aromatase (Homo sapiens) | inactive
C=CC1=C(C)C2=CC3=NC(=C(CC(=O)[O-])C4=NC(=C(C)C4=C([O-])[O-])C=c4[n-]c(c(C)c4CC)=CC1=N2)C(CCC(=O)[O-])C3C.[Cu+2].[Na+].[Na+].[Na+] (configuration not stated) | Aromatase (Homo sapiens) | inactive
C[C@H]1C[C@H]2[C@@H]3CCC4=CC(=O)C=C[C@]4(C)[C@@]3(F)[C@@H](O)C[C@]2(C)[C@@]1(O)C(=O)CCl | Aromatase (Homo sapiens) | inactive
CCN(CC)CCOCCOC(=O)C(CC)(CC)c1ccccc1 | Aromatase (Homo sapiens) | inactive
CNC[C@@H]1CC[C@@H](N)[C@@H](O[C@H]2[C@H](O)[C@@H](O[C@H]3OC[C@](C)(O)[C@H](NC)[C@H]3O)[C@H](N)C[C@@H]2N)O1 | Aromatase (Homo sapiens) | inactive
CC1CS(=O)(=O)CCN1/N=C/c1ccc([N+](=O)[O-])o1 (configuration not stated) | Aromatase (Homo sapiens) | inactive
Nc1ccn(C[C@@H](CO)OCP(=O)(O)O)c(=O)n1 | Aromatase (Homo sapiens) | inactive
CCCCCCCCCCCCOCCCN | Aromatase (Homo sapiens) | inactive
CCOC(=O)O[C@]1(C(=O)COC(=O)CC)CC[C@H]2[C@@H]3CCC4=CC(=O)C=C[C@]4(C)[C@H]3[C@@H](O)C[C@@]21C | Aromatase (Homo sapiens) | inactive
CCOC(=O)Cc1cccc(-c2cc(CCCCCCc3ccc(O[C@H]4O[C@H](COC(C)=O)[C@@H](OC(C)=O)[C@H](OC(C)=O)[C@@H]4OC(C)=O)c(-c4cccc(CC(=O)OCC)c4)c3)ccc2O[C@H]2O[C@H](COC(C)=O)[C@@H](OC(C)=O)[C@H](OC(C)=O)[C@@H]2OC(C)=O)c1 | Aromatase (Homo sapiens) | inactive
O=P(O)(O)OC[C@H](O)CO | Aromatase (Homo sapiens) | inactive
C#C[C@]1(O)CC[C@H]2[C@@H]3CCC4=C/C(=N/O)CC[C@@H]4[C@H]3CC[C@@]21CC | Aromatase (Homo sapiens) | active
O=C(O)c1cc2ccccc2c(Cc2c(O)c(C(=O)O)cc3ccccc23)c1O | Aromatase (Homo sapiens) | inactive
Cc1cc2nc3c(=O)[nH]c(=O)nc-3n(C[C@H](O)[C@H](O)[C@H](O)COP(=O)(O)OP(=O)(O)OC[C@H]3O[C@@H](n4cnc5c(N)ncnc54)[C@H](O)[C@@H]3O)c2cc1C | Aromatase (Homo sapiens) | inactive
O=C(O)CN(CC(=O)O)CC1=CC2C(=CC1=O)Oc1cc(O)c(CN(CC(=O)O)CC(=O)O)cc1C21OC(=O)c2ccccc21 (configuration not stated) | Aromatase (Homo sapiens) | inactive
COc1ccc(CCNCC(O)COc2cccc(C)c2)cc1OC (configuration not stated) | Aromatase (Homo sapiens) | inactive
CCCCCCCCCCCCCCCCCCCCCCO | Aromatase (Homo sapiens) | inactive
C[C@H]1C[C@@H]2[C@H]([C@@H](O)C[C@@]3(C)[C@H]2CC[C@]3(O)C(=O)COC(=O)CCC(=O)O)[C@@]2(C)C=CC(=O)C=C12 | Aromatase (Homo sapiens) | inactive
CCCCCCOc1ccc(C(=N)N(CCCC)CCCC)c2ccccc12 | Aromatase (Homo sapiens) | active
CC(O)[C@@H]1NC(=O)[C@H](CCCCN)NC(=O)[C@@H](Cc2c[nH]c3ccccc23)NC(=O)[C@H](Cc2ccccc2)NC(=O)[C@@H](NC(=O)[C@H](N)Cc2ccccc2)CSSC[C@@H](C(=O)N[C@H](CO)[C@@H](C)O)NC1=O (some centres not stated) | Aromatase (Homo sapiens) | inactive
CCCC(=O)Nc1ncnc2c1ncn2[C@@H]1O[C@@H]2COP(=O)(O)O[C@H]2[C@H]1OC(=O)CCC | Aromatase (Homo sapiens) | inactive
CCCCCC(O)/C=C/C=O (configuration not stated) | Aromatase (Homo sapiens) | inactive
CCC(C)C(C(=O)OCC[N+](C)(CC)CC)c1ccccc1 (configuration not stated) | Aromatase (Homo sapiens) | inactive
CCN(CC)CCOC(=O)c1ccc(N)cc1Cl | Aromatase (Homo sapiens) | inactive
CC1=C[C@H](O)CC(C)(C)[C@H]1/C=C/C(C)=C/C=C/C(C)=C/C=C/C=C(C)/C=C/C=C(C)/C=C/C1=C(C)C[C@@H](O)CC1(C)C | Aromatase (Homo sapiens) | inactive
O=C(O)c1cc(O)c2c(c1)[O][Bi][O]2 | Aromatase (Homo sapiens) | inactive
